- measurement target: hTRPA1 (Homo sapiens (Human), UniProt O75762)
- Sequence (O75762 whole entry): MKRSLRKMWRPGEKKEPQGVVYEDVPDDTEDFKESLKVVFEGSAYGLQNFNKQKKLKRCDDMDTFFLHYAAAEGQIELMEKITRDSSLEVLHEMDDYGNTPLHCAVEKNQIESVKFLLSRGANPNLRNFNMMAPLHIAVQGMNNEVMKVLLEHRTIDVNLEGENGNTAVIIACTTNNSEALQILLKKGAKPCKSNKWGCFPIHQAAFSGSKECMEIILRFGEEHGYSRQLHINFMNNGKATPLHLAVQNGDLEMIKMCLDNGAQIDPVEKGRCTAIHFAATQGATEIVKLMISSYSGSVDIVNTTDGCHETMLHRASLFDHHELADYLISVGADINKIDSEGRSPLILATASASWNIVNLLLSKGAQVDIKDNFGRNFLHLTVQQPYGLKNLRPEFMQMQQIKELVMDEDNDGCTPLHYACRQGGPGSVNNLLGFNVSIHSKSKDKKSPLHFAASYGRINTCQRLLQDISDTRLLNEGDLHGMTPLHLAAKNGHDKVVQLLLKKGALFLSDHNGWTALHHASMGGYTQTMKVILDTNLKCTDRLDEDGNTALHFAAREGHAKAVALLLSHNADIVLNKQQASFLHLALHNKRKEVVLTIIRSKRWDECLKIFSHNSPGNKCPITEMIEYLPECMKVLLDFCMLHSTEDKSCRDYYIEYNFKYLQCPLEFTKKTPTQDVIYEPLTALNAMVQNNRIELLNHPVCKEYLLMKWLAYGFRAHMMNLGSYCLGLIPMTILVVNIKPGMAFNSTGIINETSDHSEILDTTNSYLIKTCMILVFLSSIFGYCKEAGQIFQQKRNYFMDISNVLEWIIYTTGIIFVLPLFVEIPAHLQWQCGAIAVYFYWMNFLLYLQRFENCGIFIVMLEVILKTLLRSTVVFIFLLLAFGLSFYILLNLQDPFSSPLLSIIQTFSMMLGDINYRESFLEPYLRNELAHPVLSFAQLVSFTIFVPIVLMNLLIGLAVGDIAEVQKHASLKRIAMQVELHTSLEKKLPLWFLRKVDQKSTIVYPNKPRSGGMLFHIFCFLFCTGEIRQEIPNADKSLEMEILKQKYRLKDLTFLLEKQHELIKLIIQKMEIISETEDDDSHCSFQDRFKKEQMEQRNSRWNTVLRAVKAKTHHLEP
- assay procedure: Dose response calcium flux assay (FLIPR), ChanTest hTRPA1-CHO stably transfected cell line
- Type: cell-based
- conditions: CHO-K1 Tet-On human TRPA1 cells, cinnamaldehyde agonist (final 100 uM)
Record form. Attribute: pIC50. Fill in for each entry.
// pIC50: -log10(molar conc.)

query: Using the record for CC(C)N(CC(=O)NCc1ccc(F)c(-c2ccc(C(F)(F)F)cc2)c1)S(=O)(=O)c1ccc(F)cc1 [Example 35] , report its pIC50.
result: 7.27

query: So what does the record say about pIC50 for CCN(CC(=O)NCc1cccc(-c2ccc(C(F)(F)F)cc2)c1)S(=O)(=O)c1ccc(F)cc1 [Example 23] ?
result: 7.54

query: Fill in: pIC50 of CC(C)N(CC(=O)NCc1cc(-c2ccc(C(F)(F)F)cc2)ncn1)S(=O)(=O)c1cccc(F)c1 [Example 49] is ___
result: 7.15

query: What measured pIC50 goes with CN(CC(=O)NCc1cc(-c2ccc(C(F)(F)F)cc2)ncn1)S(=O)(=O)c1cccs1 [Example 26] ?
result: 6.47

query: I'd like to know its pIC50. The compound in question is CC(C)N(CC(=O)NCc1cc(-c2ccc(C(F)(F)F)cc2)ncn1)S(=O)(=O)c1ccc(Cl)s1 [Example 75]
result: 7.60

query: For CCN(CC(=O)NCc1cc(-c2ccc(C(F)(F)F)cc2)ncn1)S(=O)(=O)c1ccc(F)cc1 [Example 28] , what is its reported pIC50?
result: 7.48

query: May I ask what pIC50 has been recorded for CC(C)N(CC(=O)NCc1cc(-c2ccc(C(F)(F)F)cc2)ncn1)S(=O)(=O)c1ccccc1C#N [Example 65] ?
result: 5.41

---

- measurement target: hTRPA1 (Homo sapiens (Human), UniProt O75762)
- assay procedure: Dose response calcium flux assay (FLIPR), ChanTest hTRPA1-CHO stably transfected cell line
- Assay type: cell-based
- conditions: CHO-K1 Tet-On human TRPA1 cells, cinnamaldehyde agonist (final 100 uM)
outcome measure: IC50

query: Entry under review: `CN(CC(=O)NCc1cc(-c2ccc(C(F)(F)F)cc2)ccc1F)S(=O)(=O)c1ccc(F)cc1` . Reported IC50?
result: 48 nM

query: Can you look up the measured IC50 of `CC(C)N(CC(=O)NCc1ccc(-c2ccc(C(F)(F)F)cc2)cc1)S(=O)(=O)c1ccc(F)cc1` for me?
result: 2210 nM

query: Quick one: IC50 of `CN(CC(=O)NCc1cc(-c2ccc(C(F)(F)F)cc2)ncn1)S(=O)(=O)c1ccc(Cl)s1` ?
result: 42 nM

query: May I ask what IC50 has been recorded for `CC(C)N(CC(=O)NCc1cc(-c2ccc(C(F)(F)F)nc2)ncn1)S(=O)(=O)c1ccc(Cl)s1` ?
result: 20 nM

---

- measurement target: hTRPA1 (Homo sapiens (Human))
- assay procedure: Dose response calcium flux assay (FLIPR), ChanTest hTRPA1-CHO stably transfected cell line
- Assay type: cell-based
- conditions: CHO-K1 Tet-On human TRPA1 cells, cinnamaldehyde agonist (final 100 uM)
Lab note: anything with IC50 below 200 nM is marked Condition met; values at 200 nM or higher are marked Condition not met.

query: Just wondering, is IC50 of `C[C@@H](C(=O)NCc1cccc(-c2ccc(C(F)(F)F)cc2)c1)N(C)S(=O)(=O)c1ccc(F)cc1` below 200 nM?
result: Condition met

query: Would you kindly verify if IC50 of `CCN(CC(=O)NCc1ccc(-c2cccc(C(F)(F)F)c2)cc1)S(=O)(=O)c1ccc(F)cc1` is strictly less than 200 nM?
result: Condition not met

query: Identify whether the compound `CC(C)N(CC(=O)NCc1cccc(-c2ccc(C(F)(F)F)cn2)c1)S(=O)(=O)c1ccc(F)cc1` records IC50 below 200 nM.
result: Condition met

query: Dear reviewer, please state whether `CC(C)[C@H](C(=O)NCc1cccc(-c2ccc(C(F)(F)F)cc2)c1)N(C)S(=O)(=O)c1ccc(F)cc1` has IC50 strictly beneath 200 nM.
result: Condition not met

query: Consider the compound `CN(CC(=O)NCc1cccc(-c2ccc(C(F)(F)F)cn2)c1)S(=O)(=O)c1ccc(F)cc1` . Is its IC50 strictly less than 200 nM?
result: Condition not met

query: Field: below-cutoff. Rule: recorded IC50 strictly less than 200 nM. Subject: `O=C(CN(C1CC1)S(=O)(=O)c1ccc(F)cc1)NCc1cccc(-c2ccc(C(F)(F)F)cc2)c1`
result: Condition met

---

Would you kindly list pIC50 for each of these molecules?
- measurement target: hTRPA1 (Homo sapiens (Human))
- assay procedure: Dose response calcium flux assay (FLIPR), ChanTest hTRPA1-CHO stably transfected cell line
- Type: cell-based
- conditions: CHO-K1 Tet-On human TRPA1 cells, cinnamaldehyde agonist (final 100 uM)
Remember the convention: pIC50 equals -log10 of concentration in molar.

query: // pIC50 lookup, key: `CC(C)N(CC(=O)NCc1cc(-c2ccc(C(F)(F)F)cc2)ccc1F)S(=O)(=O)c1ccc(F)cc1`
result: 7.85

query: Reported pIC50 for `CC(C)N(CC(=O)NCc1ccnc(-c2ccc(C(F)(F)F)nc2)c1)S(=O)(=O)c1ccc(F)cc1` : what is it?
result: 6.64

query: Looking for the measured pIC50 of `COc1ccc(CNC(=O)CN(C(C)C)S(=O)(=O)c2ccc(F)cc2)cc1-c1ccc(C(F)(F)F)cc1` , can you help?
result: 7.39

query: Recorded pIC50 of `CC(C)N(CC(=O)NCc1cc(F)cc(-c2ccc(C(F)(F)F)nc2)c1)S(=O)(=O)c1ccc(F)cc1` , please.
result: 7.42

---

- measurement target: hTRPA1 (Homo sapiens (Human), UniProt O75762)
- assay procedure: Dose response calcium flux assay (FLIPR), ChanTest hTRPA1-CHO stably transfected cell line
- Format: cell-based
- conditions: CHO-K1 Tet-On human TRPA1 cells, cinnamaldehyde agonist (final 100 uM)
pIC50: −log10 of the molar value.
Cut-off 7 on pIC50, inclusive. At or above means Met; below means Not met.

query: Test whether the compound COCCN(CC(=O)NCc1cc(-c2ccc(C(F)(F)F)cc2)ncn1)S(=O)(=O)c1ccc(F)cc1 [Example 29] records pIC50 of 7 or higher.
result: Not met

query: Identify whether the reported pIC50 of the following compound is 7 or greater: CC(C)N(CC(=O)NCc1cccc(-c2ccc(C(F)(F)F)cc2)c1)S(=O)(=O)c1cccc(F)c1 [Example 48]
result: Met

query: Does pIC50 meet or surpass 7 for CC(C)N(CC(=O)NCc1ccc(-c2cccc(C(F)(F)F)c2)cc1)S(=O)(=O)c1ccc(F)cc1 [Example 34] ?
result: Not met

query: Determine whether measured pIC50 meets or exceeds 7 for CCN(CC(=O)NCc1ccc(F)c(-c2ccc(C(F)(F)F)cc2)c1)S(=O)(=O)c1ccc(F)cc1 [Example 14]
result: Met

query: Is it the case that O=C(CN(CC(F)(F)F)S(=O)(=O)c1ccc(F)cc1)NCc1cccc(-c2ccc(C(F)(F)F)cc2)c1 [Example 13] has pIC50 reaching or exceeding 7?
result: Not met

query: # bool: pIC50 of O=C(CN(CC1COC1)S(=O)(=O)c1ccc(F)cc1)NCc1cccc(-c2ccc(C(F)(F)F)cc2)c1 [Example 54] >= 7
result: Not met

query: Assess whether reported pIC50 for CC(C)N(CC(=O)NCc1cccc(-c2ccc(C(F)(F)F)nn2)c1)S(=O)(=O)c1ccc(Cl)nc1 [Example 73] sits at 7 or higher.
result: Not met

---

- measurement target: hTRPA1 (Homo sapiens (Human))
- assay procedure: Dose response calcium flux assay (FLIPR), ChanTest hTRPA1-CHO stably transfected cell line
- Assay type: cell-based
- conditions: CHO-K1 Tet-On human TRPA1 cells, cinnamaldehyde agonist (final 100 uM)
pIC50: −log10 of the molar value.
Short version: pIC50 at least 7 is t, less is f.

query: Given `O=C(CNS(=O)(=O)c1ccc(F)cc1)NCc1cccc(-c2ccc(C(F)(F)F)cc2)c1` , state whether its pIC50 is at least 7.
result: f

query: Exam item: decide whether the reported pIC50 for `O=C(CN(CCO)S(=O)(=O)c1ccc(F)cc1)NCc1cc(-c2ccc(C(F)(F)F)cc2)ncn1` is at least 7.
result: f

query: In plain terms: is recorded pIC50 at least 7 for `CC(C)N(CC(=O)NCc1cncc(-c2ccc(C(F)(F)F)cc2)c1)S(=O)(=O)c1ccc(F)cc1` ?
result: f

query: Please indicate if the recorded pIC50 for `COc1cc(CNC(=O)CN(C)S(=O)(=O)c2ccc(F)cc2)cc(-c2ccc(C(F)(F)F)cc2)c1` meets or exceeds 7.
result: f

query: Record `CC(C)[C@@H](C(=O)NCc1cccc(-c2ccc(C(F)(F)F)cc2)c1)N(C)S(=O)(=O)c1ccc(F)cc1` ; criterion: pIC50 no lower than 7. Met?
result: f

query: Hi team, for `CC(C)N(CC(=O)NCc1cccc(-c2cnc(C(F)(F)F)nc2)c1)S(=O)(=O)c1ccc(F)cc1` , is the recorded pIC50 at or above 7?
result: t

query: Does the reported pIC50 for `CC(C)N([C@@H](C)C(=O)NCc1cc(-c2ccc(C(F)(F)F)cc2)ncn1)S(=O)(=O)c1ccc(F)cc1` fall at or above the 7 mark?
result: f

query: API: above_or_equal(metric=pIC50, cutoff=7) for item `CC(C)N(CC(=O)NCc1cc(-c2ccc(C(F)(F)F)cc2)ncn1)S(=O)(=O)c1ccc(F)cc1`
result: t

query: Given the entry `CCN(CC(=O)NCc1cc(F)cc(-c2ccc(C(F)(F)F)cc2)c1)S(=O)(=O)c1ccc(F)cc1` , answer whether its pIC50 meets or surpasses 7.
result: t

query: Does the compound `CC(C)N(CC(=O)NCc1cccc(-c2ccc(C(F)(F)F)nn2)c1)S(=O)(=O)c1ccc(F)cc1` have recorded pIC50 that is 7 or more?
result: f

query: Given `COc1cc(CNC(=O)CN(C(C)C)S(=O)(=O)c2ccc(F)cc2)cc(-c2ccc(C(F)(F)F)cc2)c1` , state whether its pIC50 is at least 7.
result: t

query: Tell me whether pIC50 is at least 7 here: `CCN(CC(=O)NCc1cc(-c2ccc(C(F)(F)F)cc2)ccc1F)S(=O)(=O)c1ccc(F)cc1`
result: t

query: Reported pIC50 reaches at least 7 for `CC(C)(C)N(CC(=O)NCc1cc(-c2ccc(C(F)(F)F)cc2)ncn1)S(=O)(=O)c1ccc(F)cc1` ?
result: f

query: Confirm if pIC50 reported for the compound `CC(C)N(CC(=O)NCc1ccc(F)c(-c2cnc(C(F)(F)F)nc2)c1)S(=O)(=O)c1ccc(F)cc1` is 7 or above.
result: t

query: Answer whether pIC50 of `CN(CC(=O)NCc1cccc(-c2ccc(C(F)(F)F)cc2)c1F)S(=O)(=O)c1ccc(F)cc1` is greater than or equal to 7.
result: f

query: Does `CC(C)N(CC(=O)NCc1cc(-c2ccc(C(F)(F)F)cc2)ncn1)S(=O)(=O)c1cccnc1` have a reported pIC50 of at least 7?
result: f

query: // inclusive: pIC50 at least 7? input: `CC(C)N(CC(=O)NCc1ccnc(-c2cnc(C(F)(F)F)nc2)c1)S(=O)(=O)c1ccc(F)cc1`
result: f

query: Hello, I need to know if `CC(C)N(CC(=O)NCc1cccc(-c2cnc(C(F)(F)F)cn2)c1)S(=O)(=O)c1ccc(Cl)nc1` has measured pIC50 not below 7. Thanks!
result: f
